The entries below are paired with their reported P. falciparum blood-stage development (parasite DNA level fluorescence).
Tested on: P. falciparum NF54
Test: P. falciparum blood stage assay (SYBR Green)
Format: cell-based, Plasmodium falciparum
Settings: 2.5 uM, 72 h; untreated = 129
Measurement Kind: P. falciparum blood-stage development (parasite DNA level fluorescence)

- Compound: "Cc1nn(C)c(C)c1CCOc1cc(F)ccc1-c1cccc(N2CCNCC2)c1 [Compound 12f]"
  Recorded Value: 112.3
- Compound: "Cc1nn(C)c(C)c1CCOc1ccccc1-c1cccc(N2CCNCC2)c1 [Compound 12d]"
  Recorded Value: 118.5
- Compound: "Cc1n[nH]c(C)c1CCOc1cc(F)ccc1-c1cccc(OCCN(C)C)c1 [Compound 26i]"
  Recorded Value: 111.2
- Compound: "c1cncc(CCOc2cccnc2-c2cccc(N3CCNCC3)c2)c1 [Compound 12g]"
  Recorded Value: 114.7
- Compound: "c1cncc(CCOc2ccc3ccccc3c2-c2ccnc(N3CCNCC3)c2)c1 [Compound 30c]"
  Recorded Value: 114.3
- Compound: "Cc1nn(C)c(C)c1CCOc1ccc2ccccc2c1-c1ccnc(N2CCNCC2)c1 [Compound 30a]"
  Recorded Value: 115.2
- Compound: "c1cncc(CCOc2ccccc2-c2ccnc(N3CCNCC3)c2)c1 [Compound 12j]"
  Recorded Value: 108.6
- Compound: "Cc1nn(C)c(C)c1CCOc1ccccc1-c1cccc(OCCN(C)C)c1 [Compound 26b]"
  Recorded Value: 115.6
- Compound: "Cc1nn(C)c(C)c1CCOc1cccnc1-c1cccc(N2CCNCC2)c1 [Compound 12b]"
  Recorded Value: 119.5
- Compound: "Cc1n[nH]c(C)c1CCOc1cc(F)ccc1-c1ccnc(N2CCNCC2)c1 [Compound 12q]"
  Recorded Value: 116.1
- Compound: "Cc1nn(C)c(C)c1CCOc1cccnc1-c1ccnc(N2CCNCC2)c1 [Compound 12a]"
  Recorded Value: 116.9

----------
Target: UniProtKB P30419
Sequence (P30419 whole entry): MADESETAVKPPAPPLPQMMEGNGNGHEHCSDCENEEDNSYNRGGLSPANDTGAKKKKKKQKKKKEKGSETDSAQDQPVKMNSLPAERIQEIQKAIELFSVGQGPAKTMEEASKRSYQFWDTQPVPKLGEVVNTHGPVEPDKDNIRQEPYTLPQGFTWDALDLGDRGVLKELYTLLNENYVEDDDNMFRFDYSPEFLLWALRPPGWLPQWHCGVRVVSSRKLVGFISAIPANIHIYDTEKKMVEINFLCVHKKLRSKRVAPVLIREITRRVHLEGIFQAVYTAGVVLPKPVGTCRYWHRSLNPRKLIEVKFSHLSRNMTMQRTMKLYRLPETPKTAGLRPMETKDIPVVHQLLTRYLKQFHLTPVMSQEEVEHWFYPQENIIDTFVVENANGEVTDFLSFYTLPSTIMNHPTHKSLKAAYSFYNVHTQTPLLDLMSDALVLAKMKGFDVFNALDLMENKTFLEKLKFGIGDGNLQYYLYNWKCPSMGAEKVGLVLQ
Experiment: NMT activity assay (CPM detection of free CoA), HsNMT
pIC50: −log10 of the molar value.
Measurement Kind: pIC50

- Compound: "Cc1n[nH]c(C)c1CCOc1ccccc1-c1ccnc(N2CCNCC2)c1 [Compound 12n]"
  Measurement Kind: "pIC50"
  Recorded Value: 4.40
- Compound: "Cc1nn(C)c(C)c1CCOc1ccccc1-c1cccc(OCCN(C)C)c1 [Compound 26b]"
  Measurement Kind: "pIC50"
  Recorded Value: 5.01
- Compound: "Cc1n[nH]c(C)c1CCOc1cc(F)ccc1-c1cccc(OCCN(C)C)c1 [Compound 26i]"
  Measurement Kind: "pIC50"
  Recorded Value: 4.86

----------
System: P. falciparum NF54
Experiment: P. falciparum blood stage assay (SYBR Green)
Type: cell-based, Plasmodium falciparum
Settings: 5 uM, 72 h; untreated = 129
Reported P. falciparum blood-stage development (parasite DNA level fluorescence) values for a set of compounds
Measurement Kind: P. falciparum blood-stage development (parasite DNA level fluorescence)

- Compound: "Cc1nn(C)c(C)c1CCOc1cc(F)ccc1-c1cccc(N2CCNCC2)c1 [Compound 12f]"
  Recorded Value: 99.32
- Compound: "Cc1nn(C)c(C)c1CCOc1ccccc1-c1cccc(N2CCNCC2)c1 [Compound 12d]"
  Recorded Value: 101.9
- Compound: "c1cncc(CCOc2ccccc2-c2ccnc(N3CCNCC3)c2)c1 [Compound 12j]"
  Recorded Value: 101.9
